# Tested on: Yap1 mRNA
# test.details: Dose-dependent inhibition of human Yap1 in A-431 cells (Example 7, 10,000 cells per well, RTS36584)
# Type: cell-based
# recorded.conditions: Table 61, 15.6 nM, free uptake, A-431 cells 10,000 cells per well, 48 hours
Strand notation (5' to 3'): a small letter for the sugar, then the base; units joined by * are phosphorothioate-linked, units joined directly phosphodiester-linked; [ ] holds rarer units or linkages, { } end groups; capitals alone tell only the bases. k = constrained ethyl (cEt); [5mC] = 5-methylcytosine; d = 2'-deoxy (DNA)
measurement.kind: Yap1 mRNA, % UTC (% UTC)
Write down the numeric answer in % UTC and omit the unit.

Worked cases, Yap1 mRNA, % UTC given:
958614 (kG*kT*k[5mC]*dT*dT*dG*dT*dT*d[5mC]*dT*dT*dA*dT*kG*kG*kT; antisense) [compound 958614]; 84
958509 (kA*kT*kG*dT*dT*dA*dT*dG*dT*dT*dT*dG*dG*kG*kT*kG; antisense) [compound 958509]; 66
958569 (kA*kG*k[5mC]*d[5mC]*dT*dT*dA*dG*dA*dG*dT*d[5mC]*dA*kA*kT*kT; antisense) [compound 958569]; 82
958499 (ATTAGAGTATGTGGCA; 3-10-3 cEt gapmer, further chemistry not given here) [compound 958499]; 54
958589 (kG*kT*kA*dA*dA*dG*dG*dA*dA*dG*dA*dT*d[5mC]*kT*k[5mC]*k[5mC]; antisense) [compound 958589]; 75
958729 (kG*kT*k[5mC]*dA*dG*dT*dT*dA*dT*d[5mC]*d[5mC]*dT*dA*kT*k[5mC]*kT; antisense) [compound 958729]; 73
958659 (kG*kT*kT*dG*dT*dA*dT*dT*dA*d[5mC]*dT*d[5mC]*dT*k[5mC]*k[5mC]*kA; antisense) [compound 958659]; 91
958579 (kA*kT*k[5mC]*dT*dT*dA*dA*dT*d[5mC]*dT*dG*dT*dG*kG*k[5mC]*kT; antisense) [compound 958579]; 85
958739 (kA*kG*k[5mC]*dA*dA*dT*dA*dG*dA*dG*dT*dA*dA*k[5mC]*k[5mC]*kA; antisense) [compound 958739]; 77
958529 (k[5mC]*kA*kA*dG*dT*d[5mC]*dT*dT*dG*dT*dA*dA*dG*kT*kA*kA; antisense) [compound 958529]; 103

## Input # lookup: Yap1 mRNA, % UTC of 958474 (kG*kT*kG*dT*d[5mC]*dT*d[5mC]*d[5mC]*dT*dT*dA*dG*dA*kT*k[5mC]*k[5mC]; antisense) [compound 958474]
## Output 63

## Input # lookup: Yap1 mRNA, % UTC of 958484 (kG*k[5mC]*kA*dG*d[5mC]*dA*dA*dT*dG*dG*dA*d[5mC]*dA*kA*kG*kG; antisense) [compound 958484]
## Output 77

## Input # lookup: Yap1 mRNA, % UTC of 958599 (kT*kT*k[5mC]*dA*dA*dG*dA*dA*dT*dA*d[5mC]*d[5mC]*d[5mC]*kA*kG*kT; antisense) [compound 958599]
## Output 100

---

# System: Yap1 mRNA
# test.details: Antisense inhibition of human Yap1 in A-431 cells by cEt gapmers, single dose (Example 3, RTS36584)
# Assay type: cell-based
# recorded.conditions: Table 29; Yap1 mRNA as percent of untreated control; 3-10-3 cEt gapmers targeting SEQ ID NO.: 1, and 2
Strand notation (5' to 3'): a small letter for the sugar, then the base; units joined by * are phosphorothioate-linked, units joined directly phosphodiester-linked; [ ] holds rarer units or linkages, { } end groups; capitals alone tell only the bases. k = constrained ethyl (cEt); [5mC] = 5-methylcytosine; d = 2'-deoxy (DNA)
measurement.kind: YAP1 (% UTC)
Write down the numeric answer in % UTC and omit the unit.

Worked cases, YAP1 (% UTC) given:
1074607 (DNA kA*kA*kG*dG*dT*dA*dT*dA*dA*dT*d[5mC]*dA*dT*kG*kA*kT) [compound 1074607]; 4
1076015 (kA*kT*kT*dT*dA*dG*dT*dT*dG*dG*dT*dT*dG*kT*kT*kA; antisense) [compound 1076015]; 8
1074927 (antisense kT*kA*k[5mC]*dA*dA*d[5mC]*dA*dG*dG*d[5mC]*d[5mC]*dT*dG*k[5mC]*kA*kA) [compound 1074927]; 74
1075983 (kA*kT*k[5mC]*dG*dA*dA*dA*dA*dG*d[5mC]*dA*dA*dA*k[5mC]*kT*k[5mC]; antisense) [compound 1075983]; 5
1074863 (kA*kT*kA*dT*dG*dA*dG*d[5mC]*dA*dT*dG*d[5mC]*dT*k[5mC]*kT*kT; antisense) [compound 1074863]; 41

## Input # lookup: YAP1 (% UTC) of 1076559 (kA*kA*k[5mC]*dA*dA*dA*dT*dA*dT*dA*dG*dT*dT*kA*kG*k[5mC]; antisense) [compound 1076559]
## Output 74
